Biological target: PRMT1 (Homo sapiens, UniProt Q99873)
Construct: GST-tagged PRMT1; made in house; host or cells: High Five insect cells (baculovirus, pFastBacI)
Sequence (Q99873 with tags, fused parts or gaps): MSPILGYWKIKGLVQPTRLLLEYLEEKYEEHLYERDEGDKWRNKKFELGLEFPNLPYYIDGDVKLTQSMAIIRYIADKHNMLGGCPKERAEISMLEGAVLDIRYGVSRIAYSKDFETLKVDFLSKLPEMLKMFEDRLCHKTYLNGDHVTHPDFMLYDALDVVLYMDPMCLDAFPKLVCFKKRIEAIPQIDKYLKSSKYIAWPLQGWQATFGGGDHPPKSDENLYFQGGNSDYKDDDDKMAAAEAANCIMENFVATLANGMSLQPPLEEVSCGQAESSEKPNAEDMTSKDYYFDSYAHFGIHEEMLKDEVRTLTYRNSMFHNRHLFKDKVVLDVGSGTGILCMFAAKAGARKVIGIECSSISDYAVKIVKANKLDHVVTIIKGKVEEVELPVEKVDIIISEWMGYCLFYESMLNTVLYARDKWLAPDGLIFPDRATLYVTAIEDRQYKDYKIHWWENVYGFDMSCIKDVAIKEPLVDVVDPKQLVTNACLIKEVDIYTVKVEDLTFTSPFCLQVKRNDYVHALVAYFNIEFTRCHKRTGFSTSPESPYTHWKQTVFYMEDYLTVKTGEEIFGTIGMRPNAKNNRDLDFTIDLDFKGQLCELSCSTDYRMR
Assay: PRMT1 Biochemical Assay (3H-SAM Flashplate, histone H4 peptide substrate)
Settings: Biochemical IC50 (Numerical, μM) PRMT1, single experiment or average of multiple experiments, Table 2a
PARAMETER: IC50

CPD_SMILES	RESULT
CNCCN(C)Cc1c[nH]nc1-c1cc(OCCOC)c(Cl)c(C(F)(F)F)c1	0.163 µM
CNCCN(C)Cc1c[nH]nc1-c1cc(OCC(C)C)cc(C(F)(F)F)c1	0.0162 µM
CN(CCN)Cc1n[nH]cc1-c1cc(C(F)(F)F)cc(C(F)(F)F)c1	2.6 µM
CNCCN(C)Cc1n[nH]cc1-c1ccc(OCCOC)c(C(F)(F)F)c1	0.0328 µM
CNCCN(C)Cc1n[nH]cc1-c1cc(OCCOC)cc(C(F)(F)F)c1	0.109 µM
